// reported pIC50 for each item listed
# System: LNCap cells
# assayComment: Cell viability assay (CellTiterGlo, 6 days) LNCap
# Format: cell-based
# measurementSetup: Homo sapiens, 144 h, Table 8
pIC50: −log10 of the molar value.

See these solved cases before continuing.
smilesRepr: CC#C[C@]1(O)CC[C@H]2[C@@H]3CCC4=CC(=O)CCC4=C3[C@@H](c3ccc(N(C)CCCCCC(=O)NCCOCCOCC(=O)N4CCN(C(=O)c5cc(Cc6n[nH]c(=O)c7ccccc67)ccc5F)CC4)cc3)C[C@@]21C
pIC50: < 5.00
//
smilesRepr: CC(=O)O[C@]1(C(C)=O)CC[C@H]2[C@@H]3CCC4=CC(=O)CCC4=C3[C@@H](c3ccc(N(C)CCCCCC(=O)NCCOCCOCC(=O)N4CCN(C(=O)c5cc(Cc6n[nH]c(=O)c7ccccc67)ccc5F)CC4)cc3)C[C@@]21C
pIC50: 5.00 to 6.00
//
smilesRepr: C[C@]12CC[C@H]3[C@@H](CCC4=CC(=O)CC[C@@]43C)[C@@H]1CC[C@@H]2C(=O)COCCCCCC(=O)N1CCN(C(=O)c2cc(Cc3n[nH]c(=O)c4ccccc34)ccc2F)CC1
pIC50: 6.00 to 7.00
//
smilesRepr: CC(=O)O[C@]1(C(C)=O)CC[C@H]2[C@@H]3CCC4=CC(=O)CCC4=C3[C@@H](c3ccc(N(C)CCCCCC(=O)N4CCN(C(=O)c5cc(Cc6n[nH]c(=O)c7ccccc67)ccc5F)CC4)cc3)C[C@@]21C
pIC50: 6.00 to 7.00
//
smilesRepr: C[C@]12CC[C@H]3[C@@H](CCC4=CC(=O)CC[C@@]43C)[C@@H]1CC[C@@H]2C(=O)COCCCCCC(=O)NCCOCCOCC(=O)N1CCN(C(=O)c2cc(Cc3n[nH]c(=O)c4ccccc34)ccc2F)CC1
pIC50: 5.00 to 6.00

Consider the additional compound presented here.
Prompt line: Return pIC50 measured with LNCap cells given this compound: CC#C[C@]1(O)CC[C@H]2[C@@H]3CCC4=CC(=O)CCC4=C3[C@@H](c3ccc(N(C)CCCCCC(=O)N4CCN(C(=O)c5cc(Cc6n[nH]c(=O)c7ccccc67)ccc5F)CC4)cc3)C[C@@]21C
Response line: 6.00 to 7.00

----------
// reported IC50 for each item listed
# assayTarget: ligand binding domain of the glucocorticoid receptor (Homo sapiens, UniProt P04150)
# Sequence (P04150 524-758 limits assumed): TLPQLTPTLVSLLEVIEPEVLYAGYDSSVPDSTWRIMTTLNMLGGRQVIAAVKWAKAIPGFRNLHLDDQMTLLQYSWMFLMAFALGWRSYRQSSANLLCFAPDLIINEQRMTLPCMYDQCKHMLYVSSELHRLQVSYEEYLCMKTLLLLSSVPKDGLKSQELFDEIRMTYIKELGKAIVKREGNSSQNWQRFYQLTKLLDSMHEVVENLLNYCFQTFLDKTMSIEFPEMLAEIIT
# assayComment: GR antagonism assay (HEK293, dexamethasone 1.5 nM, Dual-glo)
# measurementSetup: Table 8

molecule: CC#C[C@]1(O)CC[C@H]2[C@@H]3CCC4=CC(=O)CCC4=C3[C@@H](c3ccc(N(C)CCCCCC(=O)NCCOCCOCC(=O)N4CCN(C(=O)c5cc(Cc6n[nH]c(=O)c7ccccc67)ccc5F)CC4)cc3)C[C@@]21C [Compound 1429]
assayTarget: ligand binding domain of the glucocorticoid receptor (Homo sapiens, UniProt P04150)
reportedResult: 10 to 100 nM

Consider the additional molecule presented here.
Prompt line: Suppose we examine the molecule CC(=O)O[C@]1(C(C)=O)CC[C@H]2[C@@H]3CCC4=CC(=O)CCC4=C3[C@@H](c3ccc(N(C)CCCCCC(=O)N4CCN(C(=O)c5cc(Cc6n[nH]c(=O)c7ccccc67)ccc5F)CC4)cc3)C[C@@]21C [Compound 1378] ; what IC50 value has been reported?
Response line: < 10 nM
